Test system: Human immunodeficiency virus 1
Experimental Protocol: In vitro inhibitory concentration against HIV L100I mutant strain
Type: functional, organism-based
Each entry below carries its recorded IC50.
The answer is to be given in µM; state only the numeric part.

Would you please look over these solved cases?
CCc1c(C)[nH]c(=O)c(N(C)C)c1C(=O)c1cc(C)cc(C)c1 0.006
CCc1c(C)[nH]c(=O)c(N(C)CC)c1Cc1cc(C)cc(C)c1 0.063

Would you kindly look at the next entry?
Would you mind telling me what IC50 value was observed for `CCc1c(C)[nH]c(=O)c(N(C)CC)c1Cc1cccc(/C=C/C#N)c1` ?
0.01

====

Each entry below carries its recorded IC50.
Test system: Human immunodeficiency virus 1
Experimental Protocol: In vitro inhibitory concentration against HIV L100I mutant strain
Type: functional, organism-based
The answer is to be given in nM; state only the numeric part.

Would you please look over these solved cases?
Compound	IC50 (nM)
O=C1Nc2ccc(Cl)cc2[C@@](C#CC2CC2)(C(F)(F)F)O1	40
CCc1c(C)[nH]c(=O)c(N(C)C(C)COC)c1Cc1cc(C)cc(C)c1 (stereo not given)	79
COCCCc1c(C)nc(O)c(N(C)C)c1C(=O)c1cccc(C)c1	20
CCc1c(C)nc(O)c(N(C)CCOC)c1C(=O)c1cccc(C)c1	8
CCc1c(C)[nH]c(=O)c(N(C)C)c1Cc1cc(C)cc(C)c1	50

Would you mind telling me what IC50 value was observed for `CCc1c(CO)nc(O)c(N(C)C)c1C(=O)c1cc(C)cc(C)c1` ?
1

Would you mind telling me what IC50 value was observed for `COCCCc1c(C)nc(O)c(N(C)C)c1C(=O)c1cc(C)cc(C)c1` ?
8

Would you mind telling me what IC50 value was observed for `CCc1c(C)[nH]c(=O)c(N(C)CCOC)c1Cc1cc(C)cc(C)c1` ?
3

Would you mind telling me what IC50 value was observed for `CCc1c(C)[nH]c(=O)c(N(C)CCOC)c1Cc1cccc(C)c1` ?
6

Would you mind telling me what IC50 value was observed for `CCc1c(C)[nH]c(=O)c(N(C)CCOC)c1Cc1cccc(/C=C/C#N)c1` ?
8

====

Each entry below carries its recorded log10 IC50.
Tested on: Human immunodeficiency virus 1
Experimental Protocol: In vitro inhibitory concentration against HIV-1 Y181C mutant strain
Type: functional, organism-based
# log10 transformed; quantity=IC50; unit=nM

Would you please look over these solved cases?
CCc1c(C)nc(O)c(NC(=S)NC(=O)c2ccccc2)c1Cc1cccc(C)c1 5.00
CCc1[nH]c(=O)c(N(C)C)c(Cc2cc(C)cc(C)c2)c1C 2.40
CCCCNc1c(Cc2cc(C)cc(C)c2)c(CC)c(C)[nH]c1=O 3.70

Would you mind telling me what log10 IC50 value was observed for `CCc1c(C)nc(O)c(N(C)CCOC)c1C(=O)c1cccc(C)c1` ?
2.80

Would you mind telling me what log10 IC50 value was observed for `CCCNc1c(Cc2cc(C)cc(C)c2)c(CC)c(C)[nH]c1=O` ?
4.20

Would you mind telling me what log10 IC50 value was observed for `CCc1c(C)[nH]c(=O)c(N(C)CCCCCO)c1Cc1cc(C)cc(C)c1` ?
2.10

====

Tested on: Human immunodeficiency virus 1
Experimental Protocol: In vitro inhibitory concentration against HIV G190A mutant strain
Format: functional, organism-based
Note to self: use label 1 only for IC50 readings below 10 nM; a reading exactly at 10 nM still gets label 0.

As a guide, the following entries are already answered.
Compound	Cat
CCc1c(C)[nH]c(=O)c(N(C)CC)c1Cc1cc(C)cc(C)c1	label 0
CCc1c(CO)nc(O)c(N(C)C)c1C(=O)c1cc(C)cc(C)c1	label 1
CCc1c(C)[nH]c(=O)c(N(C)CCOC)c1Cc1cc(C)cc(C)c1	label 0
CCc1c(C)[nH]c(=O)c(N(C)C(C)COC)c1Cc1cc(C)cc(C)c1 (stereo unspecified)	label 0
CCc1c(C)[nH]c(=O)c(N(C)C)c1C(=O)c1cc(C)cc(C)c1	label 0

Does the reported IC50 of the following compound sit strictly below 10 nM? `CCc1c(C)nc(O)c(N(C)CCOC)c1C(=O)c1cccc(C)c1`
label 1
